# Test system: NCI-H522 lung
# run_description: NCI tumour cell line growth inhibition, 48 h
Items are presented alongside their recorded TGI.
Report as a plain number; the unit µM is understood.

Problem: # lookup: TGI of O=C1C(=Nc2ccc(Nc3ccccc3)cc2)Oc2ccccc21
Solution: 4.3

Problem: What do you get for N#CC(I)CS(=O)(=O)c1ccccc1 (stereo not drawn) ?
Solution: 2.78

Problem: What do you get for O=C1NC(O)CCN1C1OC(CO)C(O)C1O (stereo not drawn) ?
Solution: 247

Problem: What do you get for COC(=O)/C=C/c1cc(OC(C)=O)c2c(c1)C(C(=O)OC)C(c1ccc(OC(C)=O)c(OC(C)=O)c1)O2 (stereo not drawn) ?
Solution: 11.6

----------
# System: CAKI-1 renal
# run_description: NCI tumour cell line growth inhibition, 48 h
measured_endpoint: TGI (µM)
Report as a plain number; the unit µM is understood.

>  <compound>
Oc1oc(C(=C2N=c3ccccc3=N2)c2ccc(Cl)cc2)c(O)c1-c1ccc(Cl)cc1

>  <TGI, µM>
7.14

$$$$

Let us examine a further case.
Problem: # lookup: TGI of C=CC1(C)CC(=O)C2(O)C(C)(O1)C(OC(C)=O)C(O)C1C(C)(C)CCC(O)C12C (stereo not given)
Solution: 58.8

----------
# Test system: A498 renal
# run_description: NCI tumour cell line growth inhibition, 48 h
Items are presented alongside their recorded log10 of TGI.
Hi team, quick reminder: these entries are log10 of TGI (µM).

Problem: # lookup: log10 of TGI of COC(=O)c1c2c(c(C)[n+]([O-])c1C)C(=O)C(NCc1ccc(Br)cc1)=CC2=O
Solution: 0.64

Problem: What do you get for CC1(C)CCc2c(ccc(C(=O)/C=C/c3ccc(O)cc3)c2O)O1 ?
Solution: 1.47

Problem: What do you get for COc1ccc(CNc2c3ccccc3nc3ccccc23)cc1F ?
Solution: 0.78

Problem: What do you get for COc1cc2c(cc1OCCCCCN1CCN(c3ncnc4ccccc34)CC1)N=CC1CCCN1C2=O (stereo not given) ?
Solution: -1.47

Problem: What do you get for O=C(CCSC1=NCCCN1)c1ccc(F)cc1 ?
Solution: 1.65

----------
Measurement record for MDA-MB-435; quantity recorded: GI50.

Illustrative cases are given below, each with its answer.
>  <structure_notation>
CCOC(=O)Nc1c(C)nc2ccccn12

>  <target_or_system>
MDA-MB-435

>  <GI50>
> 100 µM

$$$$
>  <structure_notation>
Cc1nc2sccn2c1-c1nc2sccn2c1/C=C1/C(=O)Nc2ccccc21

>  <target_or_system>
MDA-MB-435

>  <GI50>
0.53 µM

$$$$

Problem: # lookup: GI50 of NCCCn1c2c(c3ccc([N+](=O)[O-])cc3c1=O)C(=O)c1cc(I)ccc1-2
Solution: 0.223 µM

Problem: What do you get for C=C(CN(C)Cc1ccccc1)c1ccc(NC(=O)c2ccc(C(=C)CN(C)Cc3ccccc3)cc2)cc1 ?
Solution: > 100 µM

Problem: What do you get for COC(=O)C1=CN(CC2=CC(=O)C(C)=CC2=O)C=C(C(=O)OC)C1c1ccccc1OC ?
Solution: 21.8 µM

Problem: What do you get for CCOC(=O)c1c(C)c2c(n1Cc1ccccc1)CSCC2=O ?
Solution: 17.3 µM
